# TARGET ENTITY: Homeobox protein SIX1 (Homo sapiens) + Protein phosphatase EYA2 (Homo sapiens) (UniProt Q15475+O00167)
# Sequence (O00167 whole entry, looked up): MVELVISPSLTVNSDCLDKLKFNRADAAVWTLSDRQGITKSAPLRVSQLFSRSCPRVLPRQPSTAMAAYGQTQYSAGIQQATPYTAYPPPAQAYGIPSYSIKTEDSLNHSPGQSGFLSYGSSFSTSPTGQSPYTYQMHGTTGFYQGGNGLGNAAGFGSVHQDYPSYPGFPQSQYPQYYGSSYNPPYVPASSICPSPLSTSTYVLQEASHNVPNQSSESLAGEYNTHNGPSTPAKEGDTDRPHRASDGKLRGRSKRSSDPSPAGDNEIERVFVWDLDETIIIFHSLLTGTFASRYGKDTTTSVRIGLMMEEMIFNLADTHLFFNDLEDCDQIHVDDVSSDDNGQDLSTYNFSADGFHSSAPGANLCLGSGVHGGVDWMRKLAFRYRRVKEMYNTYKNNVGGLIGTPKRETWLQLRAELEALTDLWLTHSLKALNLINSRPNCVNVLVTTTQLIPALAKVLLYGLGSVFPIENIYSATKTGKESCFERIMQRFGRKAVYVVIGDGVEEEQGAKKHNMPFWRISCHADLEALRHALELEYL
# Sequence (Q15475 whole entry, looked up): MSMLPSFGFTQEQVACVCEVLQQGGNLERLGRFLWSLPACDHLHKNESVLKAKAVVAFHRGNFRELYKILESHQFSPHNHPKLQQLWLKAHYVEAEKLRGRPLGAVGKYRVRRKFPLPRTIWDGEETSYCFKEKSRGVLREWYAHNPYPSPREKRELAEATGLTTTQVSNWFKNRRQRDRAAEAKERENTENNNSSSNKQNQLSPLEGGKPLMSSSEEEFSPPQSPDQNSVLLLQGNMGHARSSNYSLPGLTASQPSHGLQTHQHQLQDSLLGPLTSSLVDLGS
# ASSAY PROTOCOL: qHTS Assay for Inhibitors of the Six1/Eya2 Interaction; also: % is scaled to controls: 0 for no effect and ±100 for the full control effect
# CONDITION LABEL: AlphaScreen GST-Six1/His-Eya2 binding, biochemical; stronger effect = lower value
Hit rate of the full screen: of about 360,000 compounds, about 2,000 (0.56%) were called active. Inconclusive results (about 2%) are left out. Many of the other results were omitted from the sample, so actives are more common in it than they were.
REPORTED ENDPOINT: activity change

Some compounds with known activity change results, for comparison:
C[C@H]1COc2cc(N3CCSCC3)ccc2S(=O)(=O)N1 3.55% (inactive)
Cc1c(C=O)n(C)n(-c2ccccc2)c1=O 15.7% (inactive)
CCCCNS(=O)(=O)c1ccc2nc(SCC(=O)Nc3cc(C)cc(C)c3)[nH]c2c1 -4.15% (inactive)
S=C(Nc1cccnc1)Nc1ccccn1 6.86% (inactive)
COC(=O)[C@]12CCCCC=C1N(Cc1ccc3c(c1)OCO3)C(=O)[C@H](CC(=O)NCc1cccs1)C2 -7.98% (inactive)

Moving on to another compound below.
Lab note: measured activity change of S=C(NN=Cc1ccccn1)Nc1ccccn1 was -91.9% (active)
